- System: vCap Cell
- Test Name: vCap cell growth inhibition, CellTiter-Glo, 72 h
- Assay type: cell-based
- Study Conditions: Homo sapiens, VCaP, 72 h, vCap cells, 72 h culture
pIC50: −log10 of the molar value.
Quantity Kind: pIC50

These recorded examples may help you get a feel for the data.
Compound	Experimental Result
CC(=O)N1Cc2cc(N3CCOCC3)cc(N3CCCc4cc(-c5cnn(C)c5)c(C(F)F)cc43)c2C1	< 6.00
CC(=O)N1Cc2cc(C3CCN(S(C)(=O)=O)CC3)cc(N3CCCc4cc(-c5cnn(C)c5)c(C(F)F)cc43)c2C1	> 6.00
CNC(=O)N1C2CCC1CC(c1cc3c(c(N4CCCc5cc(-c6cnn(C)c6)c(C(F)F)cc54)c1)CN(C(C)=O)C3)C2 (centres unmarked)	> 6.00
CCN1CCC(c2cc3c(c(N4CCCc5cc(-c6cnn(C)c6)c(C(F)F)cc54)c2)CN(C(=O)NC)CC3)CC1=O (centres unmarked)	> 6.00

We now examine a further compound.
Fill blank: measured pIC50 of the compound CC(=O)N1Cc2cc(C3CCNC(=O)C3)cc(N3CCCc4cc(-c5cnn(C)c5)c(C5CC5)cc43)c2C1 (centres unmarked) is ____.
> 6.00
